- TARGET_UNDER_TEST: thrombin receptor (PAR-1) (Homo sapiens)
- Construct: CHRF membranes (Jones, Biochim. Biophys. Acta 1992, 1136, 272) are thawed from −70° C; endogenous in cells
- Sequence (P25116 22-425): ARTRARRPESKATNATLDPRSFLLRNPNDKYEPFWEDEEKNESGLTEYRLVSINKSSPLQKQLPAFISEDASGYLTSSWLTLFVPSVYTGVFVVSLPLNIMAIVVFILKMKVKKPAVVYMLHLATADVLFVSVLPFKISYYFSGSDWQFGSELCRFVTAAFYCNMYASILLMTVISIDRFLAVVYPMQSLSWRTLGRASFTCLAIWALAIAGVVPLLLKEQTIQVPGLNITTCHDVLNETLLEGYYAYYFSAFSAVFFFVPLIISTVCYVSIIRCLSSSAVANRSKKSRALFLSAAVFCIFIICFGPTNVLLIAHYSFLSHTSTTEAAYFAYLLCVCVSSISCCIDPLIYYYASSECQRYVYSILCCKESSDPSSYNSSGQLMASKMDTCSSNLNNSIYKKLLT
- ASSAY_SUMMARY: In vitro thrombin receptor binding assay (CHRF membranes)
- CONDITION_CONTEXT: tritiated 721-40 radioligand, read-out: Bndg IC50 (Thrombin receptor binding)
VALUE_KIND: IC50 (nM)

1. C[C@@H](CNC(=O)[C@H](CCCNC(=N)N)NC(=O)[C@H](Cc1ccc(F)c(F)c1)NC(=O)Nc1ccc2c(CN3CCCC3)cn(Cc3c(Cl)cccc3Cl)c2c1)c1ccccc1 [Compound 83] : 680
2. CCN(CC)Cc1cn(Cc2ccc(F)cc2)c2cc(NC(=O)N[C@@H](Cc3ccc(OC)cc3)C(=O)N[C@@H](CCCNC(=N)N)C(=O)NCCCc3ccccc3)ccc12 [Compound 5] : 1800
3. NC(N)=NCCC[C@H](NC(=O)[C@H](Cc1ccc(F)c(F)c1)NC(=O)Nc1ccc2c(CN3CCCC3)cn(Cc3ccc(F)cc3)c2c1)C(=O)NCc1ccco1 [Compound 82] : 310
